System: PPARg:RXRa 30nM:10nM, anti-RXR (NR concentration 30 nM, RXRa partner concentration 10 nM)
Assay: PBM binding z-score (relative to random genomic background probes); higher = stronger binding; sequences stand for … in GC…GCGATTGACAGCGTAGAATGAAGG
ASSAY METRIC: PBM binding z-score

{"RECORD SEQUENCE": "GGAACGAGGGCATTCGAGTTGATAGCTTGGCGAT", "ASSAY METRIC": "PBM binding z-score", "OBS VALUE": -0.342}
{"RECORD SEQUENCE": "CTCGAAAGGTCGTGCTCAGGTGATTATACCAAAC", "ASSAY METRIC": "PBM binding z-score", "OBS VALUE": 0.939}
{"RECORD SEQUENCE": "CAAACTAGGTCACGAAAGGCCAAAGTCGAATGAC", "ASSAY METRIC": "PBM binding z-score", "OBS VALUE": 5.71}
{"RECORD SEQUENCE": "CGTCCAAGGTCAGCAGGTCAGTCAAAGCGACGTG", "ASSAY METRIC": "PBM binding z-score", "OBS VALUE": 0.878}
{"RECORD SEQUENCE": "AGAAGGAGGGCACGCTGAGTTGATAGCAGAGTAG", "ASSAY METRIC": "PBM binding z-score", "OBS VALUE": 0.436}
{"RECORD SEQUENCE": "ATCTCTAGGTAAAAGTTCAGGGAATCCCGAGGAT", "ASSAY METRIC": "PBM binding z-score", "OBS VALUE": 7.81}
{"RECORD SEQUENCE": "TCAAGTTGGTCAAAGGTCACACACTCGAAATGCG", "ASSAY METRIC": "PBM binding z-score", "OBS VALUE": 10}
{"RECORD SEQUENCE": "TCGAGTAGGTTAGTCGGGGCATGCAGCCAACATA", "ASSAY METRIC": "PBM binding z-score", "OBS VALUE": 0.702}
{"RECORD SEQUENCE": "AATACCGGGTCACTAGGCCAGAGTAGGTACGAAT", "ASSAY METRIC": "PBM binding z-score", "OBS VALUE": 2.96}
{"RECORD SEQUENCE": "CCCTACGGGTCACGAGGTTATAGCACGACGAGCG", "ASSAY METRIC": "PBM binding z-score", "OBS VALUE": 2.52}
{"RECORD SEQUENCE": "ATCTCTCGGTAAAGATAGTTCAGTGAATGCAAAT", "ASSAY METRIC": "PBM binding z-score", "OBS VALUE": 0.409}
{"RECORD SEQUENCE": "CGAACTAGGTCATTGCCAGGACAGTGAATAGTAA", "ASSAY METRIC": "PBM binding z-score", "OBS VALUE": 3.25}
{"RECORD SEQUENCE": "CGTCAAAGTTGAACTAAGGTAACGTAAAGCACGC", "ASSAY METRIC": "PBM binding z-score", "OBS VALUE": 0.653}
{"RECORD SEQUENCE": "TCGAGTAGGTGAGGGGCATTCAGAATGGCGTCGA", "ASSAY METRIC": "PBM binding z-score", "OBS VALUE": 1.98}
{"RECORD SEQUENCE": "CCAGACAGGTGAGAAAGTAACTCAGCCTCGATTA", "ASSAY METRIC": "PBM binding z-score", "OBS VALUE": -0.427}
{"RECORD SEQUENCE": "TATACAGGGTCAAAGGCCATAGTACGAATGTCGA", "ASSAY METRIC": "PBM binding z-score", "OBS VALUE": 6.42}
{"RECORD SEQUENCE": "TCTATTAGTTGATTGGGGCAACCGAAACAGCGGA", "ASSAY METRIC": "PBM binding z-score", "OBS VALUE": 3.65}
{"RECORD SEQUENCE": "GTACCAAGGTGAATAGGCCGTTGATGAGTAGGCG", "ASSAY METRIC": "PBM binding z-score", "OBS VALUE": -0.00292}
{"RECORD SEQUENCE": "GCTGCTAGGTCAACTGATGGTCAGATAAAGCTCG", "ASSAY METRIC": "PBM binding z-score", "OBS VALUE": 0.958}
{"RECORD SEQUENCE": "GGAACGAGGGCATAGTTGATAGCATCTGTCGACG", "ASSAY METRIC": "PBM binding z-score", "OBS VALUE": 2.9}
{"RECORD SEQUENCE": "TCGAGTAGGTTAGTCGGGGAATTCAGCCAACATA", "ASSAY METRIC": "PBM binding z-score", "OBS VALUE": 0.883}
{"RECORD SEQUENCE": "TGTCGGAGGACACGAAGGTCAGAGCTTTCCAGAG", "ASSAY METRIC": "PBM binding z-score", "OBS VALUE": -0.39}
{"RECORD SEQUENCE": "CGAGACAGGTGAAAGGTAACTCAGTCTGGTACGC", "ASSAY METRIC": "PBM binding z-score", "OBS VALUE": 4.23}
{"RECORD SEQUENCE": "CCTCGGAGGACAGAAGGTCAGAGTTGTCCGCTTT", "ASSAY METRIC": "PBM binding z-score", "OBS VALUE": -0.816}
{"RECORD SEQUENCE": "ACTATTATTTGACTTAGGGCAACCGATACGACGC", "ASSAY METRIC": "PBM binding z-score", "OBS VALUE": 0.924}
{"RECORD SEQUENCE": "TAGCCTAGGTCATTGGGCCAGCATAGTACGCATC", "ASSAY METRIC": "PBM binding z-score", "OBS VALUE": 0.617}
{"RECORD SEQUENCE": "CGAACGAGGGCATGAGTTGATAGCTAATGCCGAT", "ASSAY METRIC": "PBM binding z-score", "OBS VALUE": 0.214}
{"RECORD SEQUENCE": "ACTATGAGTTGAGACGAGGGCAACCGATAGGTTG", "ASSAY METRIC": "PBM binding z-score", "OBS VALUE": 0.0728}
{"RECORD SEQUENCE": "TCAGACAGGTGAAGGTTACTCAGGTACGCAGTCG", "ASSAY METRIC": "PBM binding z-score", "OBS VALUE": 3.71}
{"RECORD SEQUENCE": "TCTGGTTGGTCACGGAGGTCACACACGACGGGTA", "ASSAY METRIC": "PBM binding z-score", "OBS VALUE": 2.69}
{"RECORD SEQUENCE": "ACTCGGAGGACAATGGTCAGAGCTACGCCAGTGA", "ASSAY METRIC": "PBM binding z-score", "OBS VALUE": -0.281}
{"RECORD SEQUENCE": "TCGAGTAGGTTAGTCGGGGCAATCAGCCAACATA", "ASSAY METRIC": "PBM binding z-score", "OBS VALUE": 1.01}
{"RECORD SEQUENCE": "CCTAACGGGTCACGAGGTTATAGCACGACGAGCG", "ASSAY METRIC": "PBM binding z-score", "OBS VALUE": 2.76}
{"RECORD SEQUENCE": "ATCTCTAGGTAAAAGTTCTGTGAATCCCGAGGAT", "ASSAY METRIC": "PBM binding z-score", "OBS VALUE": 2.04}
{"RECORD SEQUENCE": "CCTAGTTGGTCAGGAGGTCTCACACCGGATATGA", "ASSAY METRIC": "PBM binding z-score", "OBS VALUE": -0.0549}
{"RECORD SEQUENCE": "CCTGCTCGGTCATGGTCAGCTAATCTACAGTATG", "ASSAY METRIC": "PBM binding z-score", "OBS VALUE": -0.454}
{"RECORD SEQUENCE": "AGTCAAAGTTCACTAGGTAACGAAAGATTCAGCT", "ASSAY METRIC": "PBM binding z-score", "OBS VALUE": 3.66}
{"RECORD SEQUENCE": "ACTAGTTGGTCTGCTGAGGTCACACACAATTCGG", "ASSAY METRIC": "PBM binding z-score", "OBS VALUE": 0.572}
{"RECORD SEQUENCE": "ATATGTAGGTTACCTCCGGGTCATTCAGGCTATG", "ASSAY METRIC": "PBM binding z-score", "OBS VALUE": 2.2}
{"RECORD SEQUENCE": "TTACCAAGGTGAGCTGAGGTCGTTGATCCAACTC", "ASSAY METRIC": "PBM binding z-score", "OBS VALUE": -0.00962}
{"RECORD SEQUENCE": "TCTTGTAGATCAGCAGGTTACGAAAGCTGGCCAA", "ASSAY METRIC": "PBM binding z-score", "OBS VALUE": 2.34}
{"RECORD SEQUENCE": "TTACCAACGTGAGCTGAGGTCGTTGATCCAACTC", "ASSAY METRIC": "PBM binding z-score", "OBS VALUE": 0.0496}
{"RECORD SEQUENCE": "ATCTCTAGGTAAAGATAGTTCAGTGACTGCAAAT", "ASSAY METRIC": "PBM binding z-score", "OBS VALUE": 0.221}
{"RECORD SEQUENCE": "ATCTCTAGGTAACAAGTTCAGTCAAAGAGAGGAC", "ASSAY METRIC": "PBM binding z-score", "OBS VALUE": 1.16}
{"RECORD SEQUENCE": "GATACAGGGTCAGCTAGAGGCCAGAGTATGGAAA", "ASSAY METRIC": "PBM binding z-score", "OBS VALUE": 0.742}
{"RECORD SEQUENCE": "TCATATAGGTACAAGGTGAAAGTCGGTGTGGTAA", "ASSAY METRIC": "PBM binding z-score", "OBS VALUE": 5.85}
{"RECORD SEQUENCE": "ATCTCTAGGTAACCAGTTCAGTGAAAGAGAGGAC", "ASSAY METRIC": "PBM binding z-score", "OBS VALUE": 0.669}
{"RECORD SEQUENCE": "TATCCTAGGTCATGGGCCAGTATACCACGCGAAC", "ASSAY METRIC": "PBM binding z-score", "OBS VALUE": 3.05}
{"RECORD SEQUENCE": "AATACAGGGTCATCGTAGGCCAGACTACGCACAG", "ASSAY METRIC": "PBM binding z-score", "OBS VALUE": 2.96}
{"RECORD SEQUENCE": "TCGAGTAGGTTAGGGGCACTCAGAATGGCGTCGA", "ASSAY METRIC": "PBM binding z-score", "OBS VALUE": 0.959}
{"RECORD SEQUENCE": "ATCTCTAGGTATCCAAGTTCAGTGAATGCCGAAC", "ASSAY METRIC": "PBM binding z-score", "OBS VALUE": 0.21}
